Observable: melting point

Study these solved cases before continuing.
| Molecule | melting point |
| --- | --- |
| CC(c1oc2ccccc2c(=O)c1-c1cccc(F)c1)n1nc(-c2cccc(N(C)C)c2)c2c(N)ncnc21 (stereo unspecified) | 218 to 220 °C |
| CCCCCCCC(=O)NCc1cccc(-c2ccc(CCC(=O)O)cc2)c1 | 124 to 125 °C |
| COc1ccc(C(=O)c2c(C)n(C)c(=O)n2C)cc1 | 109 to 111 °C |
| CCC(Cn1nccn1)n1nnc2cc3c(=O)n(C(C)Cn4ncnn4)nnc3cc2c1=O (stereo unspecified) | 162 to 163 °C |
| COC(=O)C1CCN2C(=O)C(=O)c3cc([N+](=O)[O-])cc1c32 (stereo unspecified) | 144 to 145 °C |

Q: # get_value(readout='melting point', item= C[C@H](NC(=O)c1c(CN2CCNCC2)c(-c2ccccc2)nc2ccccc12)C1CCCCC1 )
A: 116 to 118 °C

Q: Now consider Cc1nn(C)c(O)c1C(=O)c1ccc(Cl)cc1[N+](=O)[O-] .
A: 223 to 224 °C

Q: Another molecule to check: O=c1c2cccc3c2n(c(=O)n1CC(O)CO)-c1cc(C(F)(F)F)ccc1S3 (stereo unspecified)
A: 159 to 162 °C

Q: Ok, now Cc1ncncc1C(=O)Nc1ccc(-n2nc(C(F)(F)F)c(Cl)c2C2CC2)c(F)c1
A: 183 to 185 °C

Q: Query Cc1cc(-c2nnc3c4ccccc4c(OCc4ncnn4C)nn23)no1 next
A: 256 to 258 °C

Q: # iterate: O=c1[nH]c2sccc2c(=O)n1CCN1CCN(c2ccccc2Cl)CC1
A: 216 to 217 °C

###

Parameter melting point: see the listing below.
# output: bare number, implied unit °C

// below: answered compounds
| Compound | melting point (°C) |
| --- | --- |
| Cc1ccsc1C(C)N(O)C(N)=O (configuration not stated) | 131 |
| O=C(NO)c1ccc(C(=O)Nc2cccc(Nc3nc(-c4cccnc4)cs3)c2)cc1 | 206 |
| CCN(Cc1ccccc1OCc1ccccc1)c1ccc(C(=O)O)c(F)c1 | 154 |

Field: next compound
Q: # input compound: O=C(Nc1ccccc1)O[C@@H]1CN=C(c2ccc(Cl)c(Cl)c2)O[C@H]1c1ccccc1 (racemic) ; wanted: its melting point
A: 130

###

Let's look at some compounds and their measured melting point.

| Compound | Value |
| --- | --- |
| O=C1c2ccc(Cl)cc2CC1(F)Br (centres undefined) | 104 to 105 °C |
| O=c1c2ccccc2ncn1C1CCN(Cc2ccccc2)CC1 | 147 °C |
| Cc1c(N)c(C)c2c(c1-c1ccccc1)OCC2c1ccc(C(C)C)cc1 (centres undefined) | 101 to 102 °C |

Q: Which melting point value belongs to CCOC(=O)Cn1c2c(c3cc(Cl)cc(Cl)c31)CCN(C(=O)OC(C)(C)C)CC2 ?
A: 117 to 120 °C

Q: Check Cc1cc(Cn2nc(C(F)(F)C(F)(F)F)nc2C(F)(F)F)ccc1N too.
A: 60 to 63 °C

Q: Ok, now CCCCCNc1cc(C(=O)O)cc(S(N)(=O)=O)c1Oc1ccccc1
A: 223 to 224 °C

Q: And for O=C(O)CCC(=O)c1ccc(-c2ccc(Br)cc2F)cc1 ?
A: 145 to 147 °C

Q: Same question for FC(F)Oc1ccc(CN(C(=Nc2ccccc2)N(Cc2ccc(OC(F)F)cc2)C2CCCC2)C2CCCC2)cc1 please.
A: 86.5 to 88 °C

Q: What do we get for O=C1N[C@H](Cc2cccc(OCC(F)(F)F)c2)[C@H](c2ccc(F)cc2)O1 (racemic) ?
A: 148 to 149 °C

Q: Can you handle N#Cc1ccccc1-c1ccc(CN2C(=O)C3(COc4cc5c(cc43)CCO5)c3ccccc32)cc1 (centres undefined) next?
A: 192 to 194 °C

Q: Would you kindly repeat that for CC(C)(C)OC(=O)c1cccc(-c2ccc([N+](=O)[O-])cc2)c1 ?
A: 110 to 111 °C
